The measurements presented in this section are drawn from paper PMC12311606.

# testProtocol: Adsorption kinetic model fitting of the five components on the carrier
# Assay type: physicochemical
# Procedure: Preparation of W/HPDA/L nanoparticles: Briefly, 0.5 mL of TEOS were added over a stirred solution of 2 mL of NH3∙H2O solution in 100 mL of ethanol. The reaction mixture was vigorously stirred at room temperature for 3 h to obtain SiO2 nanoparticles. […] The total content of water-soluble in the supernatant (free RA and SAB) were determined by HPLC. […] The total content of lipid-soluble in the supernatant (free CPT, TSI and TSA) were determined by HPLC. […]
Below: a set of entries, each annotated with reported Qe, pseudo-second order.
readout: Qe, pseudo-second order (mg/g)

chemicalStructure | readout | valueUnit | dataValue
O=C(/C=C/c1ccc(O)c(O)c1)O[C@H](Cc1ccc(O)c(O)c1)C(=O)O | Qe, pseudo-second order | mg/g | 7.78
Cc1coc2c1C(=O)C(=O)c1c-2ccc2c1CCCC2(C)C | Qe, pseudo-second order | mg/g | 4.74
O=C(/C=C/c1ccc(O)c2c1[C@H](C(=O)O[C@H](Cc1ccc(O)c(O)c1)C(=O)O)[C@@H](c1ccc(O)c(O)c1)O2)O[C@H](Cc1ccc(O)c(O)c1)C(=O)O | Qe, pseudo-second order | mg/g | 21.95
C[C@H]1COC2=C1C(=O)C(=O)c1c2ccc2c1CCCC2(C)C | Qe, pseudo-second order | mg/g | 5.06
Cc1coc2c1C(=O)C(=O)c1c-2ccc2c(C)cccc12 | Qe, pseudo-second order | mg/g | 5.21
